Data provenance is ChEMBL document CHEMBL4627304.

Each item that follows carries a reported Flu intensity.
system: Aliivibrio logei; experiment: Binding affinity to Aliivibrio logei H-NS dependent Pr2 promoter assessed as luminescence intensity measured after 3 hrs by bioluminescence assay relative to control
Form rule: numeric answer, no unit written next to it.

Answered cases to consult:
| cpdSmiles | Flu intensity |
| --- | --- |
| CN(C)CCCNC(=O)c1ccc2nc(-c3ccc4nc(CNC(=O)CCCCN5CCN(CCCCC(=O)NCc6nc7ccc(-c8nc9ccc(C(=O)NCCCN(C)C)cc9[nH]8)cc7[nH]6)CC5)[nH]c4c3)[nH]c2c1 | 1800 |
| CN(C)CCCNC(=O)c1ccc2nc(-c3ccc4nc(CNC(=O)CN5CCN(CC(=O)NCc6nc7ccc(-c8nc9ccc(C(=O)NCCCN(C)C)cc9[nH]8)cc7[nH]6)CC5)[nH]c4c3)[nH]c2c1 | 18000 |
| CN(C)CCCNC(=O)c1ccc2nc(-c3ccc4nc(CNC(=O)CCN5CCN(CCC(=O)NCc6nc7ccc(-c8nc9ccc(C(=O)NCCCN(C)C)cc9[nH]8)cc7[nH]6)CC5)[nH]c4c3)[nH]c2c1 | 150000 |

In the following, a different molecule is considered.
Data request: If you can, please state the reported Flu intensity value of CN(C)CCCNC(=O)c1ccc2nc(-c3ccc4nc(CNC(=O)CCCN5CCN(CCCC(=O)NCc6nc7ccc(-c8nc9ccc(C(=O)NCCCN(C)C)cc9[nH]8)cc7[nH]6)CC5)[nH]c4c3)[nH]c2c1 .
Data returned: 50000

* * *

Each item that follows carries a reported IC50.
tested on: MCF7; assay: Cytotoxicity against human MCF7 cells assessed as reduction in cell viability by MTT assay; format: cell-based

Answered cases to consult:
| cpdSmiles | IC50 |
| --- | --- |
| CN(C)CCCNC(=O)c1ccc2nc(-c3ccc4nc(CNC(=O)CCCN5CCN(CCCC(=O)NCc6nc7ccc(-c8nc9ccc(C(=O)NCCCN(C)C)cc9[nH]8)cc7[nH]6)CC5)[nH]c4c3)[nH]c2c1 | > 500 µM |
| CN(C)CCCNC(=O)c1ccc2nc(-c3ccc4nc(CNC(=O)CN5CCN(CC(=O)NCc6nc7ccc(-c8nc9ccc(C(=O)NCCCN(C)C)cc9[nH]8)cc7[nH]6)CC5)[nH]c4c3)[nH]c2c1 | > 200 µM |
| CN(C)CCCNC(=O)c1ccc2nc(-c3ccc4nc(CNC(=O)CCCCN5CCN(CCCCC(=O)NCc6nc7ccc(-c8nc9ccc(C(=O)NCCCN(C)C)cc9[nH]8)cc7[nH]6)CC5)[nH]c4c3)[nH]c2c1 | > 500 µM |

Data request: If you can, please state the reported IC50 value of CN(C)CCCNC(=O)c1ccc2nc(-c3ccc4nc(CNC(=O)CCN5CCN(CCC(=O)NCc6nc7ccc(-c8nc9ccc(C(=O)NCCCN(C)C)cc9[nH]8)cc7[nH]6)CC5)[nH]c4c3)[nH]c2c1 .
Data returned: > 300 µM

* * *

assay: Selectivity index, ratio of CC50 for cytotoxicity against African green monkey Vero cells assessed as reduction in cell viability measured after 72 hrs by MTT assay to EC50 for antiviral activity against Herpes simplex virus 1 infected in African green monkey vero cells assessed as reduction in plaque formation treated 1 hr post viral infection; assay type: toxicity, cell-based; details: read-out: Ratio CC50/EC50
reportedMetric: selectivity ratio at 72 h
Form rule: numeric answer, no unit written next to it.

| cpdSmiles | measValue |
| --- | --- |
| CN(C)CCCNC(=O)c1ccc2nc(-c3ccc4nc(CNC(=O)CCN5CCN(CCC(=O)NCc6nc7ccc(-c8nc9ccc(C(=O)NCCCN(C)C)cc9[nH]8)cc7[nH]6)CC5)[nH]c4c3)[nH]c2c1 | 18 |

In the following, a different compound is considered.
Data request: If you can, please state the reported selectivity ratio at 72 h value of CN(C)CCCNC(=O)c1ccc2nc(-c3ccc4nc(CNC(=O)CN5CCN(CC(=O)NCc6nc7ccc(-c8nc9ccc(C(=O)NCCCN(C)C)cc9[nH]8)cc7[nH]6)CC5)[nH]c4c3)[nH]c2c1 .
Data returned: 34
